# measuredTarget: T1, mouse tissue factor pathway inhibitor (TFPI) (mouse, UniProt O54819 29-289, limits assumed)
# T1 construct: Bought protein; also called mouse TFPI; mTFPI
# T1 sequence (looked up): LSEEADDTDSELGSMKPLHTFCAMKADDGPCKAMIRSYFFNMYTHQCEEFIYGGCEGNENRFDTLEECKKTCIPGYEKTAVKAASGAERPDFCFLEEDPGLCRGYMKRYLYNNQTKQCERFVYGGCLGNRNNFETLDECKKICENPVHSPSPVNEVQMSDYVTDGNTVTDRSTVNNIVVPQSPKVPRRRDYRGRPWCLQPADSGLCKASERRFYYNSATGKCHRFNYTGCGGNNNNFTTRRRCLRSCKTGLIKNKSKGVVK
# assayDetails: Biacore, TFPI on CM5 chip, Fab in mobile phase
# Experimental: Purified Fab antibodies were used to determine EC₅₀ of anti-TFPI antibodies to human or mouse TFPI. EC₅₀ was assessed in an ELISA, similarly as described above. The results were analyzed using SoftMax. The binding affinity of anti-TFPI antibodies was determined in a Biacore assay. […] The antibody Fabs were analyzed in mobile phase and at least five different concentrations (0.1, 0.4, 1.6, 6.4 and 25 nM) of the purified antibodies were used in the Biacore assay. […]
quantityKind: pKd
The quantity pKd is defined as the negative base-10 logarithm of the molar concentration.

Some binders with recorded pKd:
TP-2A2 Fab (Fab, V domains shown, Human Fab from HuCal Gold, expressed in E. coli TG1) VH: QVQLVESGGGLVQPGGSLRLSCAASGFTFSNNAMNWVRQAPGKGLEWVSTISYDGSNTYYADSVKGRFTISRDNSKNTLYLQMNSLRAEDTAVYYCARQAGGWTYSYTDVWGQGTLVTVSS VL: DIELTQPPSVSVAPGQTARISCSGDNIRTYYVHWYQQKPGQAPVVVIYGDSKRPSGIPERFSGSNSGNTATLTISGTQAEDEADYYCQSYDSEADSEVFGGGTKLTVLG	7.53
TP-3G3 Fab (Fab, V domains shown, Human Fab from HuCal Gold, expressed in E. coli TG1) VH: QVQLVESGGGLVQPGGSLRLSCAASGFTFSSYSMSWVRQAPGKGLEWVSSISSSSSNTYYGDSVKGRFTISRDNSKNTLYLQMNSLRAEDTAVYYCARMHYKGMDIWGQGTLVTVSS VL: DIQMTQSPSSLSASVGDRVTITCRASQNIHSHLNWYQQKPGKAPKLLIYDASSLQSGVPSRFSGSGSGTDFTLTISSLQPEDFAVYYCQQYYDYPLTFGQGTKVEIKR	7.59

Could you now look at the following binder, please?
Given the binder TP-2G9 Fab (Fab, V domains shown, Human Fab from HuCal Gold, expressed in E. coli TG1) VH: QVQLVESGGGLVQPGGSLRLSCAASGFTFNSYAMTWVRQAPGKGLEWVSAIKSDGSNTYYADSVKGRFTISRDNSKNTLYLQMNSLRAEDTAVYYCARNDSGWFDVWGQGTLVTVSS VL: DIALTQPASVSGSPGQSITISCTGTSSDLGGFNTVSWYQQHPGKAPKLMIYSVSSRPSGVSNRFSGSKSGNTASLTISGLQAEDEADYYCQSYDLNNLVFGGGTKLTVLG , what is its reported pKd?
7.45
